// values below are reported pIC50
- System: HCT-116
- assay summary: Antitumor activity against human HCT-116 cells assessed as inhibition of cell proliferation incubated for 72 hrs by MTT assay
- Type: functional, cell-based
- condition parameters: HCT-116, 72 h
pIC50: −log10 of the molar value.
measured attribute: pIC50

[[record]]
item_smiles = "COCC(=O)Oc1ccc(NC(=O)c2ccccc2Nc2cccc(Cl)c2C)cc1"
measured_attribute = "pIC50"
relation = "="
measured_result = 4.90

[[record]]
item_smiles = "Cc1c(Cl)cccc1Nc1ccccc1C(=O)Nc1ccc(C(N)=O)cc1"
measured_attribute = "pIC50"
relation = "="
measured_result = 4.76

[[record]]
item_smiles = "Cc1c(Cl)cccc1Nc1ccccc1C(=O)Nc1ccc(N2CCN(c3ccccc3)CC2)cc1"
measured_attribute = "pIC50"
relation = "<"
measured_result = 4.52

[[record]]
item_smiles = "CCN1CCN(c2ccc(NC(=O)c3ccccc3Nc3cccc(Cl)c3C)cc2)CC1"
measured_attribute = "pIC50"
relation = "="
measured_result = 4.94

[[record]]
item_smiles = "Cc1c(Cl)cccc1Nc1ccccc1C(=O)Nc1ccc(OCCN)cc1"
measured_attribute = "pIC50"
relation = "="
measured_result = 5.19

[[record]]
item_smiles = "Cc1c(Cl)cccc1Nc1ccccc1C(=O)Nc1ccc(N2CCOCC2)cc1"
measured_attribute = "pIC50"
relation = "<"
measured_result = 4.52

[[record]]
item_smiles = "CCCCN1CCN(c2ccc(NC(=O)c3ccccc3Nc3cccc(Cl)c3C)cc2)CC1"
measured_attribute = "pIC50"
relation = "="
measured_result = 4.88

[[record]]
item_smiles = "Cc1c(Cl)cccc1Nc1ccccc1C(=O)Nc1ccc(N2CCN(C)CC2)cc1"
measured_attribute = "pIC50"
relation = "="
measured_result = 5.12

[[record]]
item_smiles = "Cc1c(Cl)cccc1Nc1ccccc1C(=O)Nc1ccc(N2CCN(C(=O)OC(C)(C)C)CC2)cc1"
measured_attribute = "pIC50"
relation = "<"
measured_result = 4.52

[[record]]
item_smiles = "O=c1[nH]cc(F)c(=O)[nH]1"
measured_attribute = "pIC50"
relation = "="
measured_result = 5.11

[[record]]
item_smiles = "Cc1c(Cl)cccc1Nc1ccccc1C(=O)Nc1ccc(N2CCN(C(C)C)CC2)cc1"
measured_attribute = "pIC50"
relation = "="
measured_result = 4.92

[[record]]
item_smiles = "Cc1c(Cl)cccc1Nc1ccccc1C(=O)Nc1ccc(OC(=O)CO)cc1"
measured_attribute = "pIC50"
relation = "="
measured_result = 4.87

[[record]]
item_smiles = "Cc1c(Cl)cccc1Nc1ccccc1C(=O)Nc1ccc(S(N)(=O)=O)cc1"
measured_attribute = "pIC50"
relation = "="
measured_result = 5.11

[[record]]
item_smiles = "Cc1c(Cl)cccc1Nc1ccccc1C(=O)Nc1ccc(OCCO)cc1"
measured_attribute = "pIC50"
relation = "="
measured_result = 5.02

[[record]]
item_smiles = "Cc1c(Cl)cccc1Nc1ccccc1C(=O)Nc1ccc(OCCNC(=O)OC(C)(C)C)cc1"
measured_attribute = "pIC50"
relation = "<"
measured_result = 4.52

[[record]]
item_smiles = "COCCOc1ccc(NC(=O)c2ccccc2Nc2cccc(Cl)c2C)cc1"
measured_attribute = "pIC50"
relation = "<"
measured_result = 4.52

[[record]]
item_smiles = "CC(=O)N1CCN(c2ccc(NC(=O)c3ccccc3Nc3cccc(Cl)c3C)cc2)CC1"
measured_attribute = "pIC50"
relation = "<"
measured_result = 4.52

[[record]]
item_smiles = "Cc1c(Cl)cccc1Nc1ccccc1C(=O)Nc1ccc(N2CCNCC2)cc1"
measured_attribute = "pIC50"
relation = "="
measured_result = 5.07

[[record]]
item_smiles = "CCCN1CCN(c2ccc(NC(=O)c3ccccc3Nc3cccc(Cl)c3C)cc2)CC1"
measured_attribute = "pIC50"
relation = "="
measured_result = 4.87

[[record]]
item_smiles = "Cc1c(Cl)cccc1Nc1ccccc1C(=O)Nc1ccc(N2CCN(S(C)(=O)=O)CC2)cc1"
measured_attribute = "pIC50"
relation = "<"
measured_result = 4.52

[[record]]
item_smiles = "Cc1c(Cl)cccc1Nc1ccccc1C(=O)Nc1ccc(NCCO)cc1"
measured_attribute = "pIC50"
relation = "="
measured_result = 4.86

